Data provenance is paper PMC2756588.

# Test Target: T1, Hse1, P38753
# T1 sequence (P38753 208-285, looked up): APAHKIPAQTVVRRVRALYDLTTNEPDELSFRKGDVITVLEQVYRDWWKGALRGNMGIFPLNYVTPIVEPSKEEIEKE
# Assay Details: SPOT array
# Condition: median of control spots 1727
Quantity Kind: SPOT intensity

# example entries with known answers
FIRKRAPTPPAPSRS    76
YSRKKLPVVLSKMTL    1
VPPPMQPPPIESSNL    0

[A] NNFYRPLLRSVLVLL
[B] YYNRQELALPKRMSS
[C] IHTRRPSSTSQYLIR
[D] RLSRLLLSLPPESFT
[E] TPTSGPPLLPPRNTM
Challenge: Order the records, beginning with the lowest SPOT intensity and ending with the highest. // list labels; follow requested order
Response given: A, B, E, C, D
(A: 0, B: 2, E: 4, C: 22, D: 59)

[1] VDFTLPPPPPPPGLD
[2] QLLNPNRRAPRRPLS
[3] FSRRQSMDIPSKNRN
Challenge: Rank order required: SPOT intensity, descending. // list labels; follow requested order
Response given: 2, 3, 1
(2: 20, 3: 8, 1: 0)

[a] VYTRTAFQIPGDDKI
[b] VGFRLALKFPSRITG
[c] KTRLRPAFIQQLWSS
[d] SKAKRPKFLLDLQIK
Challenge: Order the records, beginning with the lowest SPOT intensity and ending with the highest. // list labels; follow requested order
Response given: a, d, c, b
